test.name: Cytotoxicity against human HeLa Ohio cells after 3 days by XTT assay
Format: cell-based
experimental.setup: read-out: TC50
readout.name: CC50 at 72 h (µM)
Use µM as the unit, but write only the number.

Exam item: Could you share which CC50 at 72 h value was measured for O[C@H]1c2ccccc2OC[C@H]1Cc1ccccc1 (relative stereo) ?
Marked response: 150

----------
test.name: Therapeutic index, ratio of TC50 for human HeLa Ohio cells to IC50 for HRV1B infected in human HeLa Ohio cells
Assay type: cell-based
experimental.setup: read-out: TI
readout.name: selectivity ratio
Lab note: record the figure alone, no unit after it.

Exam item: Given the molecule O[C@H]1c2ccccc2OC[C@H]1Cc1ccccc1 (relative stereo) , what is its reported selectivity ratio?
Marked response: 43
